Test system: Pseudomonas aeruginosa
Assay: Minimum inhibitory concentration against Pseudomonas aeruginosa A21 (inoculum, 10e5 cfu per spot)
Assay type: functional
measured quantity: MIC

>  <compound>
CC1=C(C(=O)OC(c2ccccc2)c2ccccc2)N2C(=O)[C@@H](Nc3nc4ccccc4o3)C2SC1 (stereo partly drawn)

>  <value measured>
> 1000 µg/mL

$$$$
>  <compound>
CC1=C(C(=O)OC(c2ccccc2)c2ccccc2)N2C(=O)[C@@H](Nc3nc4ccccc4s3)C2SC1 (stereo partly drawn)

>  <value measured>
> 1000 µg/mL

$$$$
>  <compound>
CC(=O)Nc1ccc2[nH]c(N[C@@H]3C(=O)N4C(C(=O)OC(C)(C)C)=C(COC(C)=O)CSC34)nc2c1 (stereo partly drawn)

>  <value measured>
> 256 µg/mL

$$$$
>  <compound>
CC(=O)OCC1=C(C(=O)OC(c2ccccc2)c2ccccc2)N2C(=O)[C@@H](Nc3nc4cc(C(F)(F)F)ccc4[nH]3)C2SC1 (stereo partly drawn)

>  <value measured>
> 256 µg/mL

$$$$
>  <compound>
CC(=O)OCC1=C(C(=O)OC(c2ccccc2)c2ccccc2)N2C(=O)[C@@H](Nc3nc4c(O)cccc4[nH]3)C2SC1 (stereo partly drawn)

>  <value measured>
> 256 µg/mL

$$$$

Query string: MIC for CO[C@@]1(NC2=NCCN2)C(=O)N2C(C(=O)OC(c3ccccc3)c3ccccc3)=C(C)CSC21 (stereo partly drawn) ?
Result string: > 256 µg/mL

Query string: Field entry: CC(=O)OCC1=C(C(=O)OC(C)(C)C)N2C(=O)[C@@H](Nc3nc4ccccc4n3C)C2SC1 (stereo partly drawn)
Result string: > 256 µg/mL

Query string: Field entry: CC1=C(C(=O)OC(c2ccccc2)c2ccccc2)N2C(=O)[C@@H](NC3=NCC(C)N3)C2SC1 (stereo partly drawn)
Result string: > 256 µg/mL

----------
Tested on: Escherichia coli
Assay: Minimum inhibitory concentration against Escherichia coli TEM X3 (inoculum, 10e4 cfu per spot)(TEM I type lactamase producer)
measured quantity: MIC (µg/mL)
# value in µg/mL; strip the unit string

Worked set:
>  <compound>
CC1=C(C(=O)OC(c2ccccc2)c2ccccc2)N2C(=O)[C@@H](NC3=NC(c4ccccc4)CN3)C2SC1 (stereo partly specified)

>  <MIC / µg/mL>
1

$$$$
>  <compound>
CC(=O)OCC1=C(C(=O)OC(c2ccccc2)c2ccccc2)N2C(=O)[C@@H](Nc3nc4ccccc4[nH]3)C2SC1 (stereo partly specified)

>  <MIC / µg/mL>
2

$$$$
>  <compound>
CC1=C(C(=O)OC(c2ccccc2)c2ccccc2)N2C(=O)[C@@H](NC3=NC(c4ccc(C#N)cc4)CN3)C2SC1 (stereo partly specified)

>  <MIC / µg/mL>
4

$$$$
>  <compound>
CC(=O)OCC1=C(C(=O)OC(c2ccccc2)c2ccccc2)N2C(=O)[C@@H](Nc3nc4cc(CO)ccc4[nH]3)C2SC1 (stereo partly specified)

>  <MIC / µg/mL>
4

$$$$
>  <compound>
CC(=O)OCC1=C(C(=O)OC(c2ccccc2)c2ccccc2)N2C(=O)[C@@H](Nc3nc4cc(C)ccc4[nH]3)C2SC1 (stereo partly specified)

>  <MIC / µg/mL>
4

$$$$

Query string: MIC for CC(=O)OCC1=C(C(=O)OC(c2ccccc2)c2ccccc2)N2C(=O)[C@@H](Nc3nc4cc(C(=O)O)ccc4[nH]3)C2SC1 (stereo partly specified) ?
Result string: 16

Query string: Field entry: CC1=C(C(=O)OC(c2ccccc2)c2ccccc2)N2C(=O)[C@@H](NC3=NCC(C)N3)C2SC1 (stereo partly specified)
Result string: 2

Query string: Field entry: CC(=O)OCC1=C(C(=O)OC(c2ccccc2)c2ccccc2)N2C(=O)[C@@H](NC3=NCCN3)C2SC1 (stereo partly specified)
Result string: 32

Query string: Field entry: CC1=C(C(=O)OC(c2ccccc2)c2ccccc2)N2C(=O)[C@@H](NC3=NCCN3C)C2SC1 (stereo partly specified)
Result string: 128

Query string: Field entry: Cc1nnc(SCC2=C(C(=O)OC(c3ccccc3)c3ccccc3)N3C(=O)[C@@H](Nc4nc5ccccc5[nH]4)C3SC2)s1 (stereo partly specified)
Result string: 4

Query string: Field entry: CC(=O)Nc1ccc2[nH]c(N[C@@H]3C(=O)N4C(C(=O)OC(C)(C)C)=C(COC(C)=O)CSC34)nc2c1 (stereo partly specified)
Result string: 16

Query string: Field entry: CC(=O)OCC1=C(C(=O)OC(C)(C)C)N2C(=O)[C@@H](Nc3nc4cc(N)ccc4[nH]3)C2SC1 (stereo partly specified)
Result string: 1

Query string: Field entry: CC(=O)OCC1=C(C(=O)OC(c2ccccc2)c2ccccc2)N2C(=O)[C@@H](Nc3nc4cscc4[nH]3)C2SC1 (stereo partly specified)
Result string: 4

Query string: Field entry: CC(=O)OCC1=C(C(=O)OC(c2ccccc2)c2ccccc2)N2C(=O)[C@@H](Nc3nc4cc(F)ccc4[nH]3)C2SC1 (stereo partly specified)
Result string: 4

----------
Tested on: Escherichia coli
Assay: Minimum inhibitory concentration against Escherichia coli A8 (inoculum, 10e5 cfu per spot)
Type: functional
measured quantity: MIC (µg/mL)
# value in µg/mL; strip the unit string

>  <molecule>
CC(=O)OCC1=C(C(=O)OC(c2ccccc2)c2ccccc2)N2C(=O)[C@@H](Nc3nc4cc(C(F)(F)F)ccc4[nH]3)C2SC1 (stereo partly drawn)

>  <unit annotation>
µg/mL

>  <MIC>
32

$$$$
>  <molecule>
CC(=O)OCC1=C(C(=O)OC(c2ccccc2)c2ccccc2)N2C(=O)[C@@H](Nc3nc4cc(CO)ccc4[nH]3)C2SC1 (stereo partly drawn)

>  <unit annotation>
µg/mL

>  <MIC>
0.5

$$$$
>  <molecule>
CC(=O)OCC1=C(C(=O)OC(c2ccccc2)c2ccccc2)N2C(=O)[C@@H](NC3=NCCN3)C2SC1 (stereo partly drawn)

>  <unit annotation>
µg/mL

>  <MIC>
32

$$$$
>  <molecule>
CC(=O)OCC1=C(C(=O)OC(c2ccccc2)c2ccccc2)N2C(=O)[C@@H](Nc3nc4cc(C)ccc4[nH]3)C2SC1 (stereo partly drawn)

>  <unit annotation>
µg/mL

>  <MIC>
2

$$$$
>  <molecule>
Cc1nnc(SCC2=C(C(=O)OC(C)(C)C)N3C(=O)[C@@H](NC4=NCCN4)C3SC2)s1 (stereo partly drawn)

>  <unit annotation>
µg/mL

>  <MIC>
4

$$$$
>  <molecule>
CC(=O)Nc1ccc2[nH]c(N[C@@H]3C(=O)N4C(C(=O)OC(C)(C)C)=C(COC(C)=O)CSC34)nc2c1 (stereo partly drawn)

>  <unit annotation>
µg/mL

>  <MIC>
1

$$$$
>  <molecule>
CC(=O)OCC1=C(C(=O)OC(c2ccccc2)c2ccccc2)N2C(=O)[C@@H](Nc3nc4cc(F)ccc4[nH]3)C2SC1 (stereo partly drawn)

>  <unit annotation>
µg/mL

>  <MIC>
4

$$$$

Next, consider the following molecule.
Query string: MIC for CC(=O)OCC1=C(C(=O)OC(C)(C)C)N2C(=O)[C@@H](Nc3nc4ccc[nH]c-4n3)C2SC1 (stereo partly drawn) ?
Result string: 2

----------
Tested on: Proteus mirabilis
Assay: Minimum inhibitory concentration against Proteus mirabilis A18 (inoculum, 10e5 cfu per spot)
Assay type: functional
measured quantity: MIC (µg/mL)
# value in µg/mL; strip the unit string

Worked set:
>  <molecule>
CC1=C(C(=O)OC(c2ccccc2)c2ccccc2)N2C(=O)[C@@H](Nc3nc4ccccc4s3)C2SC1 (some centres undefined)

>  <value measured>
1000

$$$$
>  <molecule>
CC1(C)S[C@@H]2[C@H](/N=C/N3CCCCCC3)C(=O)N2[C@H]1C(=O)O [AMDINOCILLIN]

>  <value measured>
32

$$$$

Next, consider the following molecule.
Query string: MIC for CC(=O)OCC1=C(C(=O)OC(c2ccccc2)c2ccccc2)N2C(=O)[C@@H](Nc3nc4cc(C(=O)O)ccc4[nH]3)C2SC1 (some centres undefined) ?
Result string: 32

----------
Recorded MIC values for a group of molecules are listed next.
Tested on: Staphylococcus aureus
Assay: Minimum inhibitory concentration against Staphylococcus aureus A4 (inoculum, 10e5 cfu per spot)
Assay type: functional

>  <molecule>
CC(=O)OCC1=C(C(=O)OC(c2ccccc2)c2ccccc2)N2C(=O)[C@@H](Nc3nc4cc(CC#N)ccc4[nH]3)C2SC1 (stereo partly drawn)

>  <MIC>
256 µg/mL

$$$$

Query string: API: value(readout=MIC, system=Staphylococcus aureus) for record Cc1nnc(SCC2=C(C(=O)OC(C)(C)C)N3C(=O)[C@@H](NC4=NCCN4)C3SC2)s1 (stereo partly drawn)
Result string: > 256 µg/mL

Query string: Field entry: CC1=C(C(=O)OC(c2ccccc2)c2ccccc2)N2C(=O)[C@@H](NC3=NC(C)C(C)N3)C2SC1 (stereo partly drawn)
Result string: > 256 µg/mL

----------
Test system: Pseudomonas aeruginosa
Experiment: Minimum inhibitory concentration against Pseudomonas aeruginosa A21 (inoculum, 10e5 cfu per spot)
Type: functional
measured quantity: MIC

>  <molecule>
CC(=O)OCC1=C(C(=O)OC(c2ccccc2)c2ccccc2)N2C(=O)[C@@H](Nc3nc4ccccc4[nH]3)C2SC1 (stereo partly specified)

>  <MIC>
≥ 128 µg/mL

$$$$
>  <molecule>
CC(=O)OCC1=C(C(=O)OC(c2ccccc2)c2ccccc2)N2C(=O)[C@@H](Nc3nc4cc(C)ccc4[nH]3)C2SC1 (stereo partly specified)

>  <MIC>
> 256 µg/mL

$$$$
>  <molecule>
CC(=O)OCC1=C(C(=O)OC(c2ccccc2)c2ccccc2)N2C(=O)[C@@H](Nc3nc4c(N)cccc4[nH]3)C2SC1 (stereo partly specified)

>  <MIC>
> 200 µg/mL

$$$$

Query string: MIC for CO/N=C(\C(=O)N[C@@H]1C(=O)N2C(C(=O)O)=C(COC(C)=O)CS[C@H]12)c1csc(N)n1 [CEFOTAXIME] ?
Result string: 128 µg/mL

Query string: Field entry: Cn1nnnc1SCC1=C(C(=O)OC(c2ccccc2)c2ccccc2)N2C(=O)[C@@H](Nc3nc4ccccc4[nH]3)C2SC1 (stereo partly specified)
Result string: > 128 µg/mL

Query string: Field entry: CC(=O)OCC1=C(C(=O)OC(C)(C)C)N2C(=O)[C@@H](Nc3nc4cc(N)ccc4[nH]3)C2SC1 (stereo partly specified)
Result string: > 256 µg/mL
